Let's look at some binders and their measured SPOT peptide array binding signal intensity.
molecular target: SpLsb1; assay: SPOT peptide array binding signal intensity (averaged, normalized) (arbitrary units (background-subtracted, floor 0; scale differs between SH3 domains)); higher = stronger binding of the SH3 domain to the peptide
readout.name: SPOT peptide array binding signal intensity

{"binder": "LRIKRKPVQTFFEFI", "recorded.result": 4.25}
{"binder": "EVTPKVPERPSRRKT", "recorded.result": 1550}
{"binder": "IKTRSVPKIPSIESV", "recorded.result": 24.2}
{"binder": "KKIRLIFTYPSTVGR", "recorded.result": 2}
{"binder": "RVRKTHVPASKRPSG", "recorded.result": 3.75}
{"binder": "TEVPIPRRPPPPQAA", "recorded.result": 1}
{"binder": "IAPIPMPKPNPTHIS", "recorded.result": "≤ 0"}
{"binder": "VFQFQMPTTPISTKM", "recorded.result": 4.5}
{"binder": "GPPPPLPPPLFPSSS", "recorded.result": 184}
{"binder": "VKPRQLFPIPLNKVD", "recorded.result": 133}
{"binder": "RLPAPPPPPRRGPAP", "recorded.result": 12.2}
{"binder": "SHRLWLYAAPKRPKT", "recorded.result": 35.5}
{"binder": "DGNEEKPLLPTRPNK", "recorded.result": 1100}
{"binder": "TKPTPPPKPSHLKPK", "recorded.result": 251}
{"binder": "GTIARPLFLVVLFFI", "recorded.result": "≤ 0"}
{"binder": "SPLGAPPPPPHKDHL", "recorded.result": "≤ 0"}
{"binder": "NNFYRPLLRSVLVLL", "recorded.result": "≤ 0"}
{"binder": "RRRRRPHRIERPLSN", "recorded.result": "≤ 0"}
{"binder": "PAPPPPPRASRPTPN", "recorded.result": 69.5}

Where do the numbers come from? From the supplement of paper PMC4466140.
